Source: patent US10722514B2

- Tested Target: recombinant full-length USP7 (Homo sapiens, UniProt Q93009)
- Construct: A 25 μl reaction volume containing recombinant full-length USP7 (62 pM)
- Sequence (Q93009 whole entry): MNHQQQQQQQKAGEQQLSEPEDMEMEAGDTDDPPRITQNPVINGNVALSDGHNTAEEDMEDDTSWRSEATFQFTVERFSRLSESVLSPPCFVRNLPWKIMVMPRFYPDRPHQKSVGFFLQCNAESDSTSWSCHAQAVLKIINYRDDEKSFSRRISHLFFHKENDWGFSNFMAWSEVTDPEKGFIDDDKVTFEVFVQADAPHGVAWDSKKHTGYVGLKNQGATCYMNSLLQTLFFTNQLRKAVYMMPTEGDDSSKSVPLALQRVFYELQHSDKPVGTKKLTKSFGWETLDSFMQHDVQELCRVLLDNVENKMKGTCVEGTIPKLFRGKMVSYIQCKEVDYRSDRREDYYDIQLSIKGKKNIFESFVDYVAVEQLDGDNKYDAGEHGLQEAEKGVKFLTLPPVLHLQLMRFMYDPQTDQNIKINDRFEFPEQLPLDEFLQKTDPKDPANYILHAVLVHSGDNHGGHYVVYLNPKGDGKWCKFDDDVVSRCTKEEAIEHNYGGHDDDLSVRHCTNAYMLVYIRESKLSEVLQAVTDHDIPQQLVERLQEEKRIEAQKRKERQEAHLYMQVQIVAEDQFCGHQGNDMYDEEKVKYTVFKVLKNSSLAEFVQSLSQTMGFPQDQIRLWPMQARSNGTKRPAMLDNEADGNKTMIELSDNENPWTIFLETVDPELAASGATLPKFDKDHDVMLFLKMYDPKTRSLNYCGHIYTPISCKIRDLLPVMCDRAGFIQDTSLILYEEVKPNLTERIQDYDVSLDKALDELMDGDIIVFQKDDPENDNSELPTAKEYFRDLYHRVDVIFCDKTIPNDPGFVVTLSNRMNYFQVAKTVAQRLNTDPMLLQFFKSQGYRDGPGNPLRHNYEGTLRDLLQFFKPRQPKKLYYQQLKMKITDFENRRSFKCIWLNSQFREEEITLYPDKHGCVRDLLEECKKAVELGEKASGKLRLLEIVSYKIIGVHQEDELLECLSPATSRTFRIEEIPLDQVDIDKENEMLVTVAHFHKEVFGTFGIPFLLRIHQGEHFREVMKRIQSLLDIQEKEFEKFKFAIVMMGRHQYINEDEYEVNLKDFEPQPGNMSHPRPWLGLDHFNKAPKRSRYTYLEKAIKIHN
- Assay Overview: USP7-mediated ubiquitin-rhodamine cleavage assay
- Type: biochemical
- Assay Conditions: recombinant full-length USP7 62 pM; ubiquitin-rhodamine 100 nM; 30-minute incubation with compound, 1 hour reaction at room temperature; read-out: Potency: USP7 IC50

Molecule: Cc1cc(Cl)cc(-c2ccnc3cc(CO)sc23)c1OC1COC2(CNC2)C1 (stereo not shown) [Example 40]
IC50: 10000 to 30000 nM

Molecule: Cc1cc(C#N)cc(-c2ccnc3cc(CN4C(=O)CCS4(=O)=O)sc23)c1O[C@@H]1CNC[C@@H]1F [Example 114]
IC50: < 1000 nM

Molecule: Cc1cc(Cl)cc(-c2ccnc3cc(Cn4c(=O)ccn(CC(F)(F)F)c4=O)sc23)c1OC1CCNC1(C)C (stereo not shown) [Example 344]
IC50: < 1000 nM

Molecule: Cc1cc(Cl)cc(-c2ccnc3cc(CN4C(=O)CCC4=O)sc23)c1O[C@H]1CC[C@H](N2CCC2)C1 [Example 157]
IC50: < 1000 nM

* * *

- Tested Target: recombinant full-length USP7 (Homo sapiens, UniProt Q93009)
- Construct: A 25 μl reaction volume containing recombinant full-length USP7 (62 pM)
- Assay Overview: USP7-mediated ubiquitin-rhodamine cleavage assay
- Format: biochemical
- Assay Conditions: recombinant full-length USP7 62 pM; ubiquitin-rhodamine 100 nM; 30-minute incubation with compound, 1 hour reaction at room temperature; read-out: Potency: USP7 IC50
Counter-ions that a name gives are not always drawn.
Recorded IC50 values for a group of compounds are listed next.

Compound: Cc1cc(C#N)cc(-c2ncnc3cc(CO)sc23)c1O[C@H]1CCCNC1
IC50: 1000 to 10000 nM

Compound: Cc1cc(C(=O)O)cc(-c2ccnc3cc(Cn4c(=O)ccn(CC(F)(F)F)c4=O)sc23)c1O[C@H]1CCCNC1
IC50: < 1000 nM

Compound: Cc1cc(Cl)cc(-c2ccnc3cc(CO)sc23)c1OCCC1CNC1
IC50: > 30000 nM

Compound: Cc1cc(C#N)cc(-c2ncnc3cc(CN4C(=O)CCC4=O)sc23)c1O[C@@H]1CNC[C@@H]1F
IC50: < 1000 nM

Compound: N#Cc1cc(Cl)cc(-c2ccnc3cc(CO)sc23)c1O[C@H]1CCCNC1
IC50: > 30000 nM

Compound: Cc1cc(Cl)cc(-c2ncnc3cc(CN4C(=O)CCC4=O)sc23)c1O[C@@H]1CCNC[C@H]1F [Example 306, dihydrochloride]
IC50: < 1000 nM

Compound: Cc1cc(Cl)cc(-c2ccnc3cc([C@@H](C)N4C(=O)C5C(C4=O)C5(C)C)sc23)c1OC1CCC(C)NC1 (stereo partly drawn)
IC50: < 1000 nM

Compound: Cc1cc(Cl)cc(-c2ccnc3cc(Cn4c(=O)ccn(CC(F)(F)F)c4=O)sc23)c1O[C@@H]1CCNC[C@@]1(C)F
IC50: < 1000 nM

Compound: Cc1cc(Cl)cc(-c2ccnc3cc(CN4C(=O)C5CC5C4=O)sc23)c1O[C@H]1CCCNC1 (stereo partly drawn)
IC50: < 1000 nM

Compound: Cc1cc(Cl)cc(-c2ccnc3cc(CO)sc23)c1OC1CCCNC1=O (stereo not drawn)
IC50: > 30000 nM

Compound: Cc1cc(Cl)cc(-c2ccnc3cc(CN4C(=O)CCN(C)C4=O)sc23)c1O[C@@H]1CNC[C@@H]1F
IC50: < 1000 nM

Compound: CO[C@H]1CNC[C@H]1Oc1c(C)cc(Cl)cc1-c1ccnc2cc(CN3C(=O)C4C(C3=O)C4(C)C)sc12 (stereo partly drawn) [Example 388, dihydrochloride]
IC50: < 1000 nM

Compound: Cc1cc(Cl)cc(-c2ccnc3cc(CN4C(=O)C5C(C4=O)C5(C)C)sc23)c1O[C@@H]1CNC[C@@H]1C (stereo partly drawn)
IC50: < 1000 nM

Compound: Cc1cc(Cl)cc(-c2ccnc3cc(CN4C(=O)C5C(C4=O)C5(C)C)sc23)c1OCC1(C)CNC1 (stereo not drawn)
IC50: < 1000 nM

Compound: Cc1cc(Cl)cc(-c2ccnc3cc(CN4C(=O)CCC4=O)sc23)c1O[C@H]1CCNC[C@@H]1F
IC50: < 1000 nM

* * *

- Tested Target: recombinant full-length USP7 (Homo sapiens)
- Construct: A 25 μl reaction volume containing recombinant full-length USP7 (62 pM)
- Assay Overview: USP7-mediated ubiquitin-rhodamine cleavage assay
- Type: biochemical
- Assay Conditions: recombinant full-length USP7 62 pM; ubiquitin-rhodamine 100 nM; 30-minute incubation with compound, 1 hour reaction at room temperature; read-out: Potency: USP7 IC50
pIC50: −log10 of the molar value.
Entries and their measured pIC50 follow.
Reported Metric: pIC50

Smiles Code: C[C@H]1CNCC[C@H]1Oc1ccccc1-c1ccnc2cc(Cn3c(=O)ccn(CC(F)(F)F)c3=O)sc12
Measured Value: > 6.00
--
Smiles Code: Cc1cc(Cl)cc(-c2ccnc3cc(CN4C(=O)CSC4=O)sc23)c1O[C@H]1CCCNC1
Measured Value: > 6.00
--
Smiles Code: Cc1cc(Cl)cc(-c2ccnc3cc(CO)sc23)c1O[C@@H]1CNC[C@@H]1C
Measured Value: 5.00 to 6.00
--
Smiles Code: CCOC(=O)NN(Cc1cc2nccc(-c3cc(Cl)cc(C)c3O[C@@H]3CCNC[C@@H]3C)c2s1)C(=O)OCC
Measured Value: > 6.00

* * *

- Tested Target: recombinant full-length USP7 (Homo sapiens, UniProt Q93009)
- Construct: A 25 μl reaction volume containing recombinant full-length USP7 (62 pM)
- Assay Overview: USP7-mediated ubiquitin-rhodamine cleavage assay
- Assay type: biochemical
- Assay Conditions: recombinant full-length USP7 62 pM; ubiquitin-rhodamine 100 nM; 30-minute incubation with compound, 1 hour reaction at room temperature; read-out: Potency: USP7 IC50
Counter-ions that a name gives are not always drawn.
Reported Metric: IC50

Compound: Cc1cc(Cl)cc(-c2ccnc3cc(CO)sc23)c1OC[C@H]1CCCN1
Reported Metric: IC50
Measured Value: 10 to 30 µM
--
Compound: Cc1cc(Cl)cc(-c2ccnc3cc(Cn4c(=O)ccn(CC(F)(F)F)c4=O)sc23)c1OC1CNC1
Reported Metric: IC50
Measured Value: < 1 µM
--
Compound: Cc1cc(Cl)cc(-c2ccnc3cc(CO)sc23)c1O[C@@H]1CNC[C@H]1C
Reported Metric: IC50
Measured Value: 10 to 30 µM
--
Compound: Cc1cc(Cl)cc(-c2ncnc3cc(CN4C(=O)C5CCCC5C4=O)sc23)c1O[C@@H]1CNC[C@@H]1F (stereo partly drawn)
Reported Metric: IC50
Measured Value: < 1 µM
--
Compound: CCC(O)c1cc2nccc(-c3cc(Cl)cc(C)c3OCC3(CC)CNC3)c2s1 (stereo not drawn)
Reported Metric: IC50
Measured Value: < 1 µM
--
Compound: Cc1cc(Cl)cc(-c2ccnc3cc([C@H](C)N4C(=O)C5C(C4=O)C5(C)C)sc23)c1OC1CCC(C)NC1 (stereo partly drawn)
Reported Metric: IC50
Measured Value: < 1 µM
--
Compound: CCC(O)c1cc2nccc(-c3cc(Cl)cc(C)c3O[C@@H]3CCNC3)c2s1 (stereo partly drawn)
Reported Metric: IC50
Measured Value: 1 to 10 µM
--
Compound: Cc1cc(Cl)cc(-c2ccnc3cc(CN4C(=O)CCC4=O)sc23)c1O[C@H]1CC[C@H](N)C1
Reported Metric: IC50
Measured Value: < 1 µM
--
Compound: O=C1CCC(=O)N1Cc1cc2nccc(-c3cc(C(F)(F)F)cc(Cl)c3O[C@@H]3CNC[C@@H]3F)c2s1
Reported Metric: IC50
Measured Value: < 1 µM
--
Compound: Cc1cc(Cl)cc(-c2ccnc3cc(CN4C(=O)C5CCCCC5C4=O)sc23)c1OC1CCNCC1 (stereo not drawn)
Reported Metric: IC50
Measured Value: 1 to 10 µM
--
Compound: CC[C@@H](c1cc2nccc(-c3cc(Cl)cc(C)c3O[C@@H]3CNC[C@@H]3F)c2s1)N1C(=O)CCC1=O
Reported Metric: IC50
Measured Value: < 1 µM
--
Compound: Cc1cc(Cl)cc(-c2ccnc3cc(CNS(C)(=O)=O)sc23)c1O[C@@H]1CNC[C@@H]1F
Reported Metric: IC50
Measured Value: 1 to 10 µM
--
Compound: Cc1cc(Cl)cc(-c2ncnc3cc(CN4C(=O)C(C)C(C)C4=O)sc23)c1O[C@@H]1CNC[C@@H]1F (stereo partly drawn)
Reported Metric: IC50
Measured Value: < 1 µM
--
Compound: Cc1cc(Cl)cc(-c2ccnc3cc(Cn4c(=O)ccn(CC(F)(F)F)c4=O)sc23)c1O[C@@H]1CCNC[C@@H]1C
Reported Metric: IC50
Measured Value: < 1 µM
--
Compound: Cc1cc(Cl)cc(-c2ccnc3cc(Cn4c(=O)ccn(C(C)C)c4=O)sc23)c1O[C@@H]1CNC[C@@H]1C
Reported Metric: IC50
Measured Value: < 1 µM
--
Compound: Cc1cc(Cl)cc(-c2ccnc3cc(CN4C(=O)CCC4=O)sc23)c1OC1CCN(CC(F)(F)F)CC1
Reported Metric: IC50
Measured Value: 1 to 10 µM
--
Compound: Cc1cc(Cl)cc(-c2ncnc3ccsc23)c1OCC1(C)CNC1
Reported Metric: IC50
Measured Value: 10 to 30 µM
--
Compound: CCC(O)c1cc2nccc(-c3cc(Cl)cc(C)c3O[C@@H]3CNC[C@@H]3F)c2s1 (stereo partly drawn)
Reported Metric: IC50
Measured Value: 1 to 10 µM
--
Compound: Cc1cc(Cl)cc(-c2ccnc3cc(CN4C(=O)OC(C)(C)C4=O)sc23)c1O[C@H]1CCCNC1
Reported Metric: IC50
Measured Value: < 1 µM
--
Compound: Cc1cc(Cl)cc(-c2ccnc3cc(CN4C(=O)CCC4=O)sc23)c1O[C@@H]1CNC[C@@H]1C(F)F
Reported Metric: IC50
Measured Value: < 1 µM
--
Compound: Cc1cc(Cl)cc(-c2ccnc3cc(Cn4c(=O)ccn(CC(F)(F)F)c4=O)sc23)c1O[C@H]1CNCC[C@H]1C
Reported Metric: IC50
Measured Value: < 1 µM
--
Compound: Cc1cc(Cl)cc(-c2ccnc3cc(CO)sc23)c1O[C@@H]1CN[C@H](C(C)(C)O)C1
Reported Metric: IC50
Measured Value: 1 to 10 µM
--
Compound: Cc1cc(Cl)cc(-c2ccnc3cc(CN4C(=O)CCC4=O)sc23)c1O[C@@H]1CNC[C@@H]1CF
Reported Metric: IC50
Measured Value: < 1 µM
--
Compound: Cc1cc(Cl)cc(-c2ccnc3cc(CN4C(=O)CCC4=O)sc23)c1O[C@@H]1CCNC[C@@H]1F
Reported Metric: IC50
Measured Value: < 1 µM
--
Compound: Cc1cc(Cl)cc(-c2ccnc3cc([C@H](C)N4C(=O)CCC4=O)sc23)c1O[C@H]1CCCNC1
Reported Metric: IC50
Measured Value: < 1 µM
--
Compound: Cc1cc(Cl)cc(-c2ccnc3cc(CN4C(=O)C5C(C4=O)C5(C)C)sc23)c1O[C@@H]1C[C@@H]2C[C@H]1N(C)C2 (stereo partly drawn)
Reported Metric: IC50
Measured Value: < 1 µM
--
Compound: Cc1cc(Cl)cc(-c2ccnc3cc([C@H](C)n4c(=O)ccn(C)c4=O)sc23)c1O[C@H]1CCCNC1
Reported Metric: IC50
Measured Value: < 1 µM
--
Compound: Cc1cc(Cl)cc(-c2ccnc3cc(Cn4c(=O)ccn(C)c4=O)sc23)c1O[C@H]1CCCNCC1
Reported Metric: IC50
Measured Value: < 1 µM
--
Compound: N#Cc1cc(Cl)c(O[C@@H]2CNC[C@@H]2F)c(-c2ccnc3cc(CN4C(=O)CCC4=O)sc23)c1
Reported Metric: IC50
Measured Value: < 1 µM
--
Compound: Cc1cc(Cl)cc(-c2ccnc3cc(CN4C(=O)C5C(C4=O)C5(C)C)sc23)c1O[C@@H]1CNC[C@@H]1C(F)F (stereo partly drawn) [Example 389, dihydrochloride]
Reported Metric: IC50
Measured Value: < 1 µM
